# protocol details: in vivo
# condition notes: rat, in vivo, iv
outcome measure: RAT IV T1/2 (h)

smiles: COC(=O)N[C@H](C(=O)N[C@@H](Cc1ccc(-c2cnc(N3CC4CCC(C3)N4C3COC3)nc2)cc1)[C@@H](O)CN(Cc1c(F)cc(-c2ccn(C(F)F)n2)cc1F)NC(=O)[C@@H](NC(=O)OC)C(C)(C)C(F)(F)F)C(C)(C)C(F)(F)F
value unit: h
measured result: 2.09
//
smiles: COC(=O)N[C@H](C(=O)N[C@@H](Cc1ccc(C#Cc2ccc(N3CC4CCC(C3)N4C3COC3)nc2)cc1)[C@@H](O)CN(Cc1c(F)cc(-c2cc3n(n2)CCOC3)cc1F)NC(=O)[C@@H](NC(=O)OC)C(C)(C)C(F)(F)F)C(C)(C)C(F)(F)F
value unit: h
measured result: 6.28
//
smiles: COC(=O)N[C@H](C(=O)N[C@@H](Cc1ccc(C#Cc2ccc(N3CC4CCC(C3)N4C3COC3)nc2)cc1)[C@@H](O)CN(Cc1c(F)cc(-c2cc(F)ccn2)cc1F)NC(=O)[C@@H](NC(=O)OC)C(C)(C)C(F)(F)F)C(C)(C)C(F)(F)F
value unit: h
measured result: 12.9

###

// reported Human Pred Cl. per item
# condition notes: human liver microsomes 0.5 mg/mL, 1 uM compound, NADPH

smiles: COC(=O)N[C@H](C(=O)N[C@@H](Cc1ccc(C#Cc2cnc(N3C[C@H]4C[C@@H]3CN4C3COC3)nc2)cc1)[C@@H](O)CN(Cc1c(F)cc(-c2ccn(C3CC3)n2)cc1F)NC(=O)[C@@H](NC(=O)OC)C(C)(C)C(F)(F)F)C(C)(C)C(F)(F)F
Human Pred Cl.: <0.11 L/H/kg

smiles: COC(=O)N[C@H](C(=O)N[C@@H](Cc1ccc(C#Cc2cnc(N3CC4CCC(C3)N4C3COC3)nc2)cc1)[C@@H](O)CN(Cc1c(F)cc(-c2cn(C(F)F)cn2)cc1F)NC(=O)[C@@H](NC(=O)OC)C(C)(C)C(F)(F)F)C(C)(C)C(F)(F)F
Human Pred Cl.: <0.11 L/H/kg

smiles: COC(=O)N[C@H](C(=O)N[C@@H](Cc1ccc(C#Cc2ccc(N3CCN([C@@H]4CCOC4)CC3)nc2)cc1)[C@@H](O)CN(Cc1c(F)cc(-c2ccn(C(F)F)n2)cc1F)NC(=O)[C@@H](NC(=O)OC)C(C)(C)C(F)(F)F)C(C)(C)C(F)(F)F
Human Pred Cl.: <0.11 L/H/kg

###

# condition notes: rat, microsomes
outcome measure: Rat. Pred. Cl.

compound: COC(=O)N[C@H](C(=O)N[C@@H](Cc1ccc(C#Cc2cnc(N3CC4CCC(C3)N4C3COC3)cn2)cc1)[C@@H](O)CN(Cc1c(F)cc(-c2ccn(C(F)F)n2)cc1F)NC(=O)[C@@H](NC(=O)OC)C(C)(C)C(F)(F)F)C(C)(C)C(F)(F)F [Example 50]
outcome measure: Rat. Pred. Cl.
measured result: <0.18 L/H/kg

compound: COC(=O)N[C@H](C(=O)N[C@@H](Cc1ccc(C#Cc2cnc(N3CC4CCC(C3)N4C3COC3)nc2)cc1)[C@@H](O)CN(Cc1c(F)cc(-c2ccn(C(F)F)n2)cc1F)NC(=O)[C@@H](NC(=O)OC)C(C)(C)C)C(C)(C)C [Example 121]
outcome measure: Rat. Pred. Cl.
measured result: <0.18 L/H/kg

compound: COC(=O)N[C@H](C(=O)N[C@@H](Cc1ccc(C#Cc2cnc(N3CC4CCC(C3)N4C3COC3)cc2C)cc1)[C@@H](O)CN(Cc1c(F)cc(-c2cnn(C(F)F)c2)cc1F)NC(=O)[C@@H](NC(=O)OC)C(C)(C)C(F)(F)F)C(C)(C)C(F)(F)F [Example 154]
outcome measure: Rat. Pred. Cl.
measured result: <0.18 L/H/kg

###

# condition notes: rat liver microsomes 0.5 mg/mL, 1 uM compound, NADPH
Values of Rat. Pred. Cl. greater than or equal to 0.5 L/H/kg map to true (1); values below map to false (0).

molecule: COC(=O)N[C@H](C(=O)N[C@@H](Cc1ccc(C#Cc2ccc(-c3cn4c(n3)CN(C)C(=O)C4)cc2)cc1)[C@@H](O)CN(Cc1c(F)cc(-c2cnn(C(F)F)c2)cc1F)NC(=O)[C@@H](NC(=O)OC)C(C)(C)C(F)(F)F)C(C)(C)C(F)(F)F [Example 69]
discrete label: false (0)
//
molecule: CC(C)([C@H](NC(=O)OC1CC1)C(=O)N[C@@H](Cc1ccc(-c2cnn(C(F)F)c2)cc1)[C@@H](O)CN(Cc1c(F)cc(-c2cnn(C(F)F)c2)cc1F)NC(=O)[C@@H](NC(=O)OC1CC1)C(C)(C)C(F)(F)F)C(F)(F)F [Example 210]
discrete label: false (0)
//
molecule: COC(=O)N[C@H](C(=O)N[C@@H](Cc1ccc(C#Cc2ccc(N3CCN(C)C(=O)C3)nc2)cc1)[C@@H](O)CN(Cc1c(F)cc(-c2ccn(C(F)F)n2)cc1F)NC(=O)[C@@H](NC(=O)OC)C(C)(C)C(F)(F)F)C(C)(C)C(F)(F)F [Example 81]
discrete label: false (0)
//
molecule: COC(=O)N[C@H](C(=O)N[C@@H](Cc1ccc(C#Cc2cnc(N3CCNC(=O)C3)nc2)cc1)[C@@H](O)CN(Cc1c(F)cc(-c2ccn(C(F)F)n2)cc1F)NC(=O)[C@@H](NC(=O)OC)C(C)(C)C(F)(F)F)C(C)(C)C(F)(F)F [Example 123]
discrete label: false (0)
//
molecule: COC(=O)N[C@H](C(=O)NN(Cc1c(F)cc(-c2ccn(C(F)F)n2)cc1F)C[C@H](O)[C@H](Cc1ccc(-c2cnn(C(F)F)c2)cc1)NC(=O)[C@@H](NC(=O)OC)C(C)(C)C(F)(F)F)C(C)(C)C [Example 218]
discrete label: false (0)
//
molecule: COC(=O)N[C@H](C(=O)N[C@@H](Cc1ccc(C#Cc2cnc(N3C[C@H]4C[C@@H]3CN4C3COC3)nc2)cc1)[C@@H](O)CN(Cc1c(F)cc(-c2ccn(CC(F)F)n2)cc1F)NC(=O)[C@@H](NC(=O)OC)C(C)(C)C(F)(F)F)C(C)(C)C(F)(F)F [Example 25]
discrete label: true (1)
//
molecule: COC(=O)N[C@H](C(=O)N[C@@H](Cc1ccc(C#Cc2cnc(N3CC4CCC(C3)N4C3COC3)nc2)cc1)[C@@H](O)CN(Cc1c(F)cc(-c2cn(C(F)F)cn2)cc1F)NC(=O)[C@@H](NC(=O)OC)C(C)(C)C(F)(F)F)C(C)(C)C(F)(F)F [Example 133]
discrete label: false (0)
//
molecule: COC(=O)N[C@H](C(=O)N[C@@H](Cc1ccc(C#Cc2ccc(N3C[C@H]4C[C@@H]3CN4C3COC3)nc2)cc1)[C@@H](O)CN(Cc1c(F)cc(-c2cc(F)ccn2)cc1F)NC(=O)[C@@H](NC(=O)OC)C(C)(C)C(F)(F)F)C(C)(C)C(F)(F)F [Example 138]
discrete label: true (1)
//
molecule: COC(=O)N[C@H](C(=O)N[C@@H](Cc1ccc(C#Cc2ccc(N3CCN(C4COC4)CC3)nc2)cc1)[C@@H](O)CN(Cc1c(F)cc(-c2ccc(F)cn2)cc1F)NC(=O)[C@@H](NC(=O)OC)C(C)(C)C(F)(F)F)C(C)(C)C(F)(F)F [Example 97]
discrete label: false (0)

From: patent US10294234B2
